molecular target: Tyrosine-protein phosphatase non-receptor type 11 (Homo sapiens)
Sequence (Q06124 whole entry): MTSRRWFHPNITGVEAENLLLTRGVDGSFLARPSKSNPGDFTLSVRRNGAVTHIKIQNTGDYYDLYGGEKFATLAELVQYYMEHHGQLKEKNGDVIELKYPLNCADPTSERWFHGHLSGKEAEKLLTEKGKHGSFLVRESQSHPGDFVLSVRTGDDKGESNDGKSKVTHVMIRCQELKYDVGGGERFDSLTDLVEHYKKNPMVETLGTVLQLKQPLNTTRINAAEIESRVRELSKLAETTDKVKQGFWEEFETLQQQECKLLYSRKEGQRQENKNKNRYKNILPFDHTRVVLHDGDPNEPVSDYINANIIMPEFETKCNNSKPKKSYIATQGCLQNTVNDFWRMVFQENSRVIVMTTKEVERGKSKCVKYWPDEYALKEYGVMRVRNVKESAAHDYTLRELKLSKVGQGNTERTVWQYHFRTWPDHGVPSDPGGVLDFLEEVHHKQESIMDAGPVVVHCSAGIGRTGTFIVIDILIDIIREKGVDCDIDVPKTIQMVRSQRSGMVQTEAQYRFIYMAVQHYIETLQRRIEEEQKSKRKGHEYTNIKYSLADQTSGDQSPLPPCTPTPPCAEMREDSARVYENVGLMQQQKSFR
propertyName: IC50 (nM)
One number for each entry, in nM.

Prompt: Return reported IC50; argument: Cn1c(N2[C@H]3CC[C@@H]2[C@H](N)C3)nc2[nH]cc(-c3ccc4ncsc4c3Cl)c2c1=O [US12037345, Example 101]
Response: 1.5
